# experiment summary: qHTS Assay to Identify Small Molecule Activators of BRCA1 Expression; note: nearly all actives have a fitted effect of over 80% in size
# condition parameters: MCF7-BRCA1-FFLuc reporter, luminescence, 48 h; series mostly up to 46.1 µM
Out of some 380,000 compounds screened, about 4,000 (1.1%) were called active. Not shown: some 3% with an inconclusive outcome. Calls come from the whole dose curve; as a rule, active = well fitted activation curve with a large enough effect; inconclusive = small, poorly fitted or top-dose-only effect; inactive = no such curve, though single readings can be large or run the other way. Many of the other results were omitted from the sample, so actives are more common in it than they were.
Classes used: 1 for active, 0 for inactive

compound: COc1ccccc1CNS(=O)(=O)c1cc(Br)cc2c1N(C(C)=O)C(C)C2 (stereo unspecified)
assigned label: 0

compound: COc1ccc(S(=O)(=O)Nc2cccc3cccnc23)c(N)c1
assigned label: 0

compound: C/C(=N\Nc1cccc(C(=O)O)c1)c1ccc2c(c1)Nc1ccccc1S2
assigned label: 1

compound: O=C(CSCc1cccs1)N1CCCC1
assigned label: 1

compound: COc1ccc(C(=O)OCC(=O)c2ccc(Cl)s2)c(OC)c1OC
assigned label: 0

compound: CNC(=O)c1sc(Nc2ccc(OCc3ccccc3)cc2)nc1C
assigned label: 0

compound: c1csc(-c2nnc(COc3ncnc4sccc34)o2)c1
assigned label: 0

compound: COC(=O)c1ccccc1NS(=O)(=O)c1ccc2c(c1)CCCN2C(C)=O
assigned label: 0

compound: Cc1ccc(/C=N/NC(=S)NC2CCCCC2)o1
assigned label: 1

compound: Cn1c(SCC(=O)N2CCCC2)nnc1-c1cccs1
assigned label: 0

compound: COc1ccc(-c2noc(CSc3nc(C)cc(=O)[nH]3)n2)cc1OC
assigned label: 0

compound: CC(C)CC(=O)NC(=S)Nc1ccc(F)cc1F
assigned label: 0

compound: Clc1ccc(Cc2nnc(-c3cccs3)o2)cc1
assigned label: 1

compound: Cn1c(=O)c2c(nc(Oc3ccc(C#N)cc3)n2Cc2ccc(Cl)cc2Cl)n(C)c1=O
assigned label: 0

compound: C=COC(=O)N1CCN(/[N+]([O-])=N/Oc2ccc([N+](=O)[O-])cc2[N+](=O)[O-])CC1
assigned label: 0

compound: CCCCNC(=O)Cn1c(SCc2cccc(Cl)c2)nc2ccncc21
assigned label: 0

compound: COc1cncc(-c2cnc3sc(NCCc4ccccn4)nn23)c1
assigned label: 0

compound: COc1ccccc1CNc1nccn(-c2ccc(F)cc2)c1=O
assigned label: 0

compound: S=C(Nc1ccc(Br)cc1)NC1CCN(Cc2ccccc2)CC1
assigned label: 0

compound: O=C(CSc1n[nH]c(-c2cccs2)n1)N1CCCCC1
assigned label: 0

compound: Cc1ccc(C(=O)OC(C)CN2CCOCC2)cc1 (stereo unspecified)
assigned label: 0

compound: Cc1cc(NC(=O)COC(=O)/C=C/c2ccc(C)o2)no1
assigned label: 0

compound: CC(C)CC(=O)NC(=S)NNC(=O)c1cccc([N+](=O)[O-])c1
assigned label: 0

compound: Cc1cccc(C(=O)OC(C)CN2CCCC2)c1 (stereo unspecified)
assigned label: 0

compound: Cc1cccc(C(=O)OC(C)CN2CCN(C)CC2)c1 (stereo unspecified)
assigned label: 1

compound: CCc1nnc(NC(=O)[C@@H](NC(=O)c2cccc(C)c2)C(C)C)s1
assigned label: 0

compound: Cc1ccc(-c2nc(=N)sn2Cc2ccccc2)cc1
assigned label: 0

compound: Cc1oc2c(c1C(=O)Nc1ccc(F)c(F)c1)C1=NCCN1C=N2
assigned label: 0

compound: Cc1ccc2nc(-c3cccc(Br)c3)cc(C(=O)Nn3cnnc3)c2c1
assigned label: 1

compound: O=C(Nc1cccc([N+](=O)[O-])c1)N1CCc2ccccc2C1
assigned label: 1

compound: O=C(CCC(=O)c1cccs1)NC1CCCCCC1
assigned label: 0

compound: COc1cc(OC)cc(-c2nc3nc(C)c(CCC(=O)Nc4ccccc4)c(C)n3n2)c1
assigned label: 0

compound: O=C(c1ccc2c(=O)n(Cc3ccco3)c(=S)[nH]c2c1)N1CCCC1
assigned label: 0

compound: C(=Nc1ccc(/C=C/c2ccnc3ccccc23)cc1)c1cc2c3c(c1)CCCN3CCC2
assigned label: 0

compound: C/C(Cc1ccccc1)=N\NC(=O)CNC(=O)c1ccc2c(c1)OCCO2
assigned label: 0

compound: Cc1c(NC(=O)Nc2cccc([N+](=O)[O-])c2)c(=O)n(-c2ccccc2)n1C
assigned label: 0

compound: CCOC(=O)c1c(C)[nH]c(C)c1S(=O)(=O)N1CCC(C(=O)Nc2ccc(C)c(Cl)c2)CC1
assigned label: 0

compound: COc1ccc(-c2nc3nc(C)cc(C)n3c2Nc2c(C)cccc2C)cc1
assigned label: 0

compound: COc1ccc(NCCc2ccccn2)cc1
assigned label: 1

compound: CC(C)(C)c1ccc(C(=O)C[n+]2cccc3cc(Cl)ccc32)cc1
assigned label: 0

compound: CS(=O)(=O)N1CCc2cc(C(=O)Nc3ccccc3)ccc21
assigned label: 0

compound: CCCN1CN=C(NS(=O)(=O)c2ccc(NC(C)=O)cc2)NC1
assigned label: 0

compound: COc1ccc2c(c1)c(N1CCCC1=O)c(C(=O)Nc1ccccc1C(F)(F)F)n2C
assigned label: 0

compound: C/C(=N\NC(=S)NC1CCCCC1)c1ccc(C)o1
assigned label: 0

compound: O=C(c1ccco1)N(Cc1cccs1)c1ccc(O)cc1
assigned label: 0

compound: Cc1ccc(-c2nn3c(=O)cc(CN4CCN(C(=O)Nc5cccc(C(F)(F)F)c5)CC4)nc3s2)cc1
assigned label: 0
